These entries and their values trace back to PubChem BioAssay AID2060506.

# Tested on: 598228-144-R-J1-PDC complex spheroid viability;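 note: spheroids exposed to the agents for one week before reading; percent of vehicle DMSO control viability so 100% = untreated growth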
# assay.comment: Anticancer human tumor 598228-144-R-J1-PDC patient-derived serous endometrial adenocarcinoma cell line growth inhibition [GQUAD]
# experimental.setup: second compound 0.0316 µM; first compound 0.316 µM; hits give low values
quantity.name: viability, T/C (%)
The reply should contain only the number, in %.

*Q* What does the data say about its viability, T/C? Entry: O=c1[nH]cc(F)c(=O)[nH]1 + Cc1[nH]c2ccc(F)cc2c1-c1nc2c3cccnc3c3ncccc3c2[nH]1
*A* 90.2

*Q* Now try CCCS(=O)(=O)Nc1ccc(F)c(C(=O)c2c[nH]c3ncc(-c4ccc(Cl)cc4)cc23)c1F + CN(C)c1ccc(Nc2c3ccc(NC(=O)CCN4CCCC4)cc3nc3cc(NC(=O)CCN4CCCC4)ccc23)cc1 .
*A* 93.8

*Q* What do we get for COc1cccc2c1C(=O)c1c(O)c3c(c(O)c1C2=O)CC(O)(C(=O)CO)CC3OC1CC(N)C(O)C(C)O1 (stereo not given) + CN(C)c1ccc(Nc2c3ccc(NC(=O)CCN4CCCC4)cc3nc3cc(NC(=O)CCN4CCCC4)ccc23)cc1 ?
*A* 66.6

*Q* Consider next the compound O=C(NO)c1cnc(N2CCN(S(=O)(=O)c3ccc4ccccc4c3)CC2)nc1 + Cc1cnc(CNC(=O)c2c(=O)c3ccc(N4CCCN(C)CC4)nc3n3c2sc2ccccc23)cn1 in the same way.
*A* 22.8

*Q* Cool, now C=CCn1c(=O)c2cnc(Nc3ccc(N4CCN(C)CC4)cc3)nc2n1-c1cccc(C(C)(C)O)n1 + Cc1[nH]c2ccc(F)cc2c1-c1nc2c3cccnc3c3ncccc3c2[nH]1
*A* 83.2

*Q* What about this compound? Nc1ccn(C2OC(CO)C(O)C2(F)F)c(=O)n1 (stereo not given) + CN(C)c1ccc(Nc2c3ccc(NC(=O)CCN4CCCC4)cc3nc3cc(NC(=O)CCN4CCCC4)ccc23)cc1
*A* 39.4

*Q* Thanks! And Cn1ncnc1[C@H]1c2n[nH]c(=O)c3cc(F)cc(c23)N[C@@H]1c1ccc(F)cc1 + Cc1[nH]c2ccc(F)cc2c1-c1nc2c3cccnc3c3ncccc3c2[nH]1 ?
*A* 83.3

*Q* And the next one, CCCS(=O)(=O)Nc1ccc(F)c(C(=O)c2c[nH]c3ncc(-c4ccc(Cl)cc4)cc23)c1F + Cc1[nH]c2ccc(F)cc2c1-c1nc2c3cccnc3c3ncccc3c2[nH]1 ?
*A* 135

*Q* Also check COc1ccc([C@@H](O)c2cc(-c3ncnc4cc(N5CCOCC5)ccc34)c(F)cc2Cl)nn1 + Cc1cnc(CNC(=O)c2c(=O)c3ccc(N4CCCN(C)CC4)nc3n3c2sc2ccccc23)cn1
*A* 66.6

*Q* # repeat for CC(=O)O[C@H]1C(=O)[C@@]2(C)[C@H]([C@H](OC(=O)c3ccccc3)[C@]3(O)C[C@H](OC(=O)[C@H](O)[C@@H](NC(=O)c4ccccc4)c4ccccc4)C(C)=C1C3(C)C)[C@]1(OC(C)=O)CO[C@@H]1C[C@@H]2O + Cc1cnc(CNC(=O)c2c(=O)c3ccc(N4CCCN(C)CC4)nc3n3c2sc2ccccc23)cn1
*A* 45.2
